test system: Hepatitis C virus; assay: Antiviral activity against Hepatitis C virus Con1 genotype 1b infected in human HuH7 cells after 72 hrs by luciferase reporter gene assay; assay type: functional, organism-based, Hepacivirus hominis; conditions: isolate Con1, Huh-7, 72 h
# Lookup of reported EC50 keyed by entry
Reply numerically in µM, unit not repeated.

Study these solved cases before continuing.
- Structure As Smiles: "CC(C)(C)C#Cc1cc(N(C(=O)[C@H]2CC[C@H](C)CC2)[C@H]2CC[C@H](O)CC2)c(C(=O)O)s1"
  U: "µM"
  Observed Value: 0.006
- Structure As Smiles: "C[C@@H](CCO)N(c1cc(C#CC(C)(C)C)sc1C(=O)O)C(=O)[C@H]1CC[C@H](C)CC1"
  U: "µM"
  Observed Value: 0.007

Using the record for CC(C)N(c1cc(-c2ccccc2)sc1C(=O)O)C(=O)[C@H]1CC[C@H](C)CC1 , report its EC50.
0.593

Using the record for CC(C)(C)C#Cc1cc(N(CCO)C(=O)[C@H]2CC[C@H](C)CC2)c(C(=O)O)s1 , report its EC50.
0.078

====

tested on: Hepatitis C virus; experiment: Antiviral activity against Hepatitis C virus H77 genotype 1a infected in human HuH7 cells assessed as observed antiviral potency after 72 hrs by luciferase reporter gene assay; type: functional, organism-based, Hepacivirus hominis; settings: genotype 1a H77, Huh-7, 72 h
Quantity Measured: log10(EC50) (log10 of the value in nM)
Transform log10 | Measure EC50 | Unit nM

Study these solved cases before continuing.
- Structure As Smiles: "CC(C)N(C(=O)C1CCCCC1)c1cc(C#CC(C)(C)C)sc1C(=O)O"
  System: "Hepatitis C virus"
  log10(EC50): 3.45
- Structure As Smiles: "CC(C)(C)C#Cc1cc(N(C(=O)[C@H]2CC[C@H](C)CC2)[C@H]2CC[C@H](Oc3cccnc3)CC2)c(C(=O)O)s1"
  System: "Hepatitis C virus"
  log10(EC50): 2.11
- Structure As Smiles: "C[C@H]1CC[C@H](C(=O)N(c2cc(C#CC3(C(F)(F)F)CCC3)sc2C(=O)O)[C@H]2CC[C@H](Oc3ccc(O)nn3)CC2)CC1"
  System: "Hepatitis C virus"
  log10(EC50): 2.08
- Structure As Smiles: "CC(C)(C)C#Cc1cc(N(C(=O)[C@H]2CC[C@H](C)CC2)[C@H]2CC[C@H](Oc3ccccn3)CC2)c(C(=O)O)s1"
  System: "Hepatitis C virus"
  log10(EC50): 2.47
- Structure As Smiles: "CC(C)N(C(=O)[C@H]1[C@@H]2CCCC[C@@H]21)c1cc(C#CC(C)(C)C)sc1C(=O)O"
  System: "Hepatitis C virus"
  log10(EC50): 3.67

With those in mind, consider the next compound.
Using the record for CC(C)(C)C#Cc1cc(N(C(=O)[C@H]2CC[C@H](C)CC2)C2CCN(C(=O)c3cccnc3)CC2)c(C(=O)O)s1 , report its log10(EC50).
2.26

====

assay: Lipophilicity, log D of the compound by chromatography; format: physicochemical
Quantity Measured: chromatographic logD
Lab note: jot down the number only; don't add units.

Study these solved cases before continuing.
- Compound: "CC(C)(C)C#Cc1cc(N(C(=O)[C@H]2CC[C@H](C)CC2)[C@H]2CC[C@H](Oc3ccc4nccn4n3)CC2)c(C(=O)O)s1"
  chromatographic logD: 2.4
- Compound: "CC(C)(C)C#Cc1cc(N(C(=O)[C@H]2CC[C@H](C)CC2)[C@H]2CC[C@H](Oc3ccncn3)CC2)c(C(=O)O)s1"
  chromatographic logD: 2.3
- Compound: "CC(C)(C)C#Cc1cc(N(C(=O)[C@H]2CC[C@H](C)CC2)[C@H]2CC[C@H](OC3CCOC3)CC2)c(C(=O)O)s1 (some centres undefined)"
  chromatographic logD: 2.3

Using the record for C[C@@H]1CC[C@@H](C(=O)N(c2cc(C#CC(C)(C)C)sc2C(=O)O)[C@H]2CC[C@H](OC3CCOC3)CC2)[C@@H](O)C1 (some centres undefined) , report its chromatographic logD.
2.2

====

# Lookup of reported fraction unbound at 2 µM keyed by entry
experiment: Fraction unbound in cell culture medium at 2 uM at pH 7.4 by equilibrium dialysis method; type: ADME
Lab note: jot down the number only; don't add units.

Study these solved cases before continuing.
- Compound: "CC1CC=C(C(=O)N(c2cc(C#CC(C)(C)C)sc2C(=O)O)C(C)C)CC1 (stereo not given)"
  Observed Value: 0.08
- Compound: "CC(C)(C)C#Cc1cc(N(C(=O)[C@H]2CC[C@H](C)CC2)C2CCN(C(=O)c3cccnc3)CC2)c(C(=O)O)s1"
  Observed Value: 0.23
- Compound: "CC(C)N(C(=O)C1CCCCC1)c1cc(C#CC(C)(C)C)sc1C(=O)O"
  Observed Value: 0.18

Using the record for CC(C)N(c1cc(C#CC(C)(C)C)sc1C(=O)O)C(=O)[C@H]1CC[C@H](C)CC1 , report its fraction unbound at 2 µM.
0.06

Using the record for C[C@@H](CCOc1cccnc1)N(c1cc(C#CC(C)(C)C)sc1C(=O)O)C(=O)[C@H]1CC[C@H](C)CC1 , report its fraction unbound at 2 µM.
0.02

====

assay: Intrinsic cytotoxicity against human MT4 cells after 5 days by Cell Titre Glo assay; type: cell-based
Quantity Measured: CC50 at 120 h (µM)
Reply numerically in µM, unit not repeated.

Study these solved cases before continuing.
- Compound: "CC(C)(C)C#Cc1cc(N(C(=O)[C@H]2CC[C@H](C)CC2)[C@H]2CC[C@H](OC3COC3)CC2)c(C(=O)O)s1"
  CC50 at 120 h / µM: 8.35
- Compound: "CC(C)(C)C#Cc1cc(N(C(=O)[C@H]2CC[C@H](C)CC2)[C@H]2CC[C@H](OC3CCOC3)CC2)c(C(=O)O)s1 (some centres undefined)"
  CC50 at 120 h / µM: 3.07
- Compound: "CC(C)(C)C#Cc1cc(N(C(=O)[C@H]2CC[C@H](C)CC2)[C@H]2CC[C@](O)(CO[C@H]3CCOC3)CC2)c(C(=O)O)s1"
  CC50 at 120 h / µM: 8.98

With those in mind, consider the next compound.
Using the record for CC(C)(C)C#Cc1cc(N(C(=O)[C@H]2CC[C@H](C)CC2)[C@H]2CC[C@H](Oc3ccc(=O)[nH]n3)CC2)c(C(=O)O)s1 , report its CC50 at 120 h.
1.48

====

test system: Hepatitis C virus; assay: Antiviral activity against Hepatitis C virus H77 genotype 1a infected in human HuH7 cells assessed as observed antiviral potency after 72 hrs by luciferase reporter gene assay; format: functional, organism-based, Hepacivirus hominis; settings: genotype 1a H77, Huh-7, 72 h
# thresholds on EC50 define classes: lo = under 60 nM, med = from 60 nM up to 300 nM, hi = 300 nM and over

Please let me know in which category the item CON=C1CCC(N(c2cc(C#CC(C)(C)C)sc2C(=O)O)C(=O)[C@H]2CC[C@H](C)CC2)CC1 (stereo partly specified) belongs.
med

Please let me know in which category the item CC(C)(C)C#Cc1cc(N(C(=O)[C@H]2CC[C@H](C)CC2)[C@H]2CC[C@H](Oc3ccc(=O)[nH]n3)CC2)c(C(=O)O)s1 belongs.
lo

Please let me know in which category the item CC(C)(C)C#Cc1cc(N(C(=O)[C@H]2CC[C@H](C)CC2)[C@H]2CC[C@H](OC3CCOC3)CC2)c(C(=O)O)s1 (stereo partly specified) belongs.
lo

Please let me know in which category the item C[C@@H](CCOc1cccnc1)N(c1cc(C#CC(C)(C)C)sc1C(=O)O)C(=O)[C@H]1CC[C@H](C)CC1 belongs.
med

Please let me know in which category the item CC(C)N(C(=O)[C@H]1CC[C@@H]2C[C@@H]2CC1)c1cc(C#CC(C)(C)C)sc1C(=O)O belongs.
hi

====

test: Mean residence time in Sprague-Dawley rat at 0.5 mg/kg, iv; format: ADME, organism-based; set-up: dose 0.5 mg/kg, route intravenous; conditions: in vivo
Quantity Measured: log10 of MRT (log10 of the value in h)
Transform log10 | Measure MRT | Unit h

Study these solved cases before continuing.
- Compound: "CC(C)(C)C#Cc1cc(N(C(=O)[C@H]2CC[C@H](C)CC2)[C@H]2CC[C@](O)(CO[C@H]3CCOC3)CC2)c(C(=O)O)s1"
  log10 of MRT: 0.58
- Compound: "CC(C)(C)C#Cc1cc(N(C(=O)[C@H]2CC[C@H](C)CC2)[C@H]2CC[C@H](OC3CCOC3)CC2)c(C(=O)O)s1 (stereo not given in full)"
  log10 of MRT: 0.54

Using the record for CC(C)(C)C#Cc1cc(N(C(=O)[C@H]2CC[C@H](C)CC2)[C@H]2CC[C@H](Oc3ccncn3)CC2)c(C(=O)O)s1 , report its log10 of MRT.
0.85

Using the record for CC(C)(C)C#Cc1cc(N(C(=O)[C@H]2CC[C@H](C)CC2)[C@H]2CC[C@H](Oc3ccc(=O)[nH]n3)CC2)c(C(=O)O)s1 , report its log10 of MRT.
0.20

Using the record for CC(C)(C)C#Cc1cc(N(C(=O)[C@H]2CC[C@H](C)CC2)[C@H]2CC[C@@H](Oc3cccnc3)CC2)c(C(=O)O)s1 , report its log10 of MRT.
-0.70

Using the record for CC(C)(C#Cc1cc(N(C(=O)[C@H]2CC[C@H](C)CC2)[C@H]2CC[C@H](OC3CCOC3)CC2)c(C(=O)O)s1)CCO (stereo not given in full) , report its log10 of MRT.
-0.40

Using the record for CC(C)(C)C#Cc1cc(N(C(=O)[C@H]2CC[C@H](C)CC2)[C@H]2CC[C@@H](Oc3ccc(O)nn3)CC2)c(C(=O)O)s1 , report its log10 of MRT.
-0.30

Using the record for CC1=CC[C@H](C(=O)N(c2cc(C#CC(C)(C)C)sc2C(=O)O)[C@H]2CC[C@](O)(CO[C@H]3CCOC3)CC2)CC1 , report its log10 of MRT.
0.43

Using the record for C[C@@H]1CC[C@@H](C(=O)N(c2cc(C#CC(C)(C)C)sc2C(=O)O)[C@H]2CC[C@H](OC3CCOC3)CC2)[C@@H](O)C1 (stereo not given in full) , report its log10 of MRT.
0.28

Using the record for CC(C)(C)C#Cc1cc(N(C(=O)[C@H]2CC[C@H](C)CC2)[C@H]2CC[C@@](O)(CO[C@H]3CCOC3)CC2)c(C(=O)O)s1 , report its log10 of MRT.
-0.70
